test system: FLAP (5-lipoxygenase activating protein); test: In vitro binding test: displacement of [3H]-7-chloro-3-(5-((3-fluoropyridin-2-yl)methoxy)-2-methylphenyl)-3,4-dihydroquinazolin-2(1H)-one from Sf9 microsome fractions; parameters: species or system human and mouse; details: Sf9 microsome fractions expressing FLAP; 100% = radioligand binding with 10 μM sodium 3-(3-(tert-butylsulfanyl)-1-(4-chlorobenzyl)-5-isopropyl-1H-indol-2-yl)-2,2-dimethylpropanoate, 0% = DMSO; test compound concentration not given
// values below are reported inhibitory rate (%)
readout.label: inhibitory rate (%)

* O=C1Nc2c(ccnc2Cl)CN1c1cc2c(cc1Cl)CCC(c1ncccc1F)O2 (centres unmarked) | 115
* Cc1ccc(OCc2ncccc2F)cc1N1Cc2c(Cl)cccc2N(CC(=O)O)C1=O | 102
* Cc1cc2c(cc1N1Cc3cn(CC(F)(F)F)c(=O)cc3NC1=O)OC(c1ncccc1F)CC2 (centres unmarked) | 104
* Cc1cc2c(cc1N1Cc3c(F)cncc3NC1=O)OC(c1ncccc1F)CC2 (centres unmarked) | 96
* O=C1Nc2c(N3CCC(O)CC3)ncc(Cl)c2CN1c1cc2c(cc1Cl)CCC(c1ncccc1F)O2 (centres unmarked) | 106
* O=C1Nc2ccnc(C3CC3)c2CN1c1cc2c(cc1Cl)CCC(c1ncccc1F)O2 (centres unmarked) | 94
* CCOC(=O)c1nccc2c1CN(c1cc3c(cc1Cl)CCC(c1ncccc1F)O3)C(=O)N2 (centres unmarked) | 110
* Cc1ccc(OCc2cccc(F)c2F)cc1N1Cc2ccc(C(C)(C)O)cc2NC1=O | 81
* O=c1[nH]c2ccccc2c(=O)n1-c1cc(OCc2c(F)cccc2F)ccn1 | 50
* Cc1ccc(OCc2ncccc2F)cc1N1Cc2c(O)cccc2NC1=O | 103
* Cc1ccc(OCc2ncccc2F)cc1N1Cc2c(ccnc2C#N)NC1=O | 90
* COC(=O)c1ccc2c(c1)NC(=O)N(c1cc(OCc3nccc(Cl)c3F)ccc1C)C2 | 109
* Cc1ccc(OCc2c(F)cccc2F)cc1N1Cc2cnccc2NC1=O | 79
* CC(C)(O)c1ccc2c(c1)NC(=O)N(c1cc(OCc3c(F)cccc3F)ccc1Cl)C2 | 103
* Cc1cc2c(cc1N1Cc3c(ccnc3C(F)(F)F)NC1=O)OC(c1ncccc1F)CC2 (centres unmarked) | 103
* Cc1ccc(OCc2ncccc2F)cc1N1Cc2ccc(C(=O)N3CCCC(O)C3)cc2NC1=O (centres unmarked) | 90
* Cc1cc2c(cc1N1Cc3c(cc(OCC(F)F)nc3C3CC3)NC1=O)OC(c1ncccc1F)CC2 (centres unmarked) | 97

###

system: FLAP (5-lipoxygenase activating protein); experiment: In vitro binding test: displacement of [3H]-7-chloro-3-(5-((3-fluoropyridin-2-yl)methoxy)-2-methylphenyl)-3,4-dihydroquinazolin-2(1H)-one from Sf9 microsome fractions; set-up: species or system human and mouse; details: Sf9 microsome fractions expressing FLAP; 100% = radioligand binding with 10 μM sodium 3-(3-(tert-butylsulfanyl)-1-(4-chlorobenzyl)-5-isopropyl-1H-indol-2-yl)-2,2-dimethylpropanoate, 0% = DMSO; test compound concentration not given
Measured inhibitory rate (%) of individual entries
readout.label: inhibitory rate (%)

• Cc1ccc(OCc2c(F)cccc2F)cc1N1Cc2ncccc2NC1=O [Example 223] = 95
• O=C1Nc2ccnc(Cl)c2CN1c1cc2c(cc1C(F)(F)F)CCC(c1ncccc1F)O2 (centres unmarked) [Example 35] = 93
• Cc1ccc(OCc2ncccc2F)cc1N1Cc2c(ccnc2C(N)=O)NC1=O [Example 322] = 97
• Cc1ccc(OCc2c(F)cccc2F)cc1N1Cc2ccc(CO)cc2NC1=O [Example 181] = 91
• Cc1cc2c(cc1N1Cc3c(Cl)cnc(C4CC4)c3NC1=O)OC(c1ncccc1F)CC2 (centres unmarked) [Example 142] = 102
• Cc1ccc(OCc2ncccn2)cc1N1Cc2c(Cl)cccc2NC1=O [Example 274] = 106
• O=C1Nc2cc(CO)ccc2CN1c1cc(OCc2c(F)cccc2F)ccc1C(F)(F)F [Example 239] = 86
• Cc1ncc(Cl)c2c1NC(=O)N(c1cc3c(cc1Cl)CC[C@H](c1ncccc1F)O3)C2 [Example 8] = 103
• COCCNC(=O)c1cc2c(c(C3CC3)n1)CN(c1cc3c(cc1Cl)CCC(c1ncccc1F)O3)C(=O)N2 (centres unmarked) [Example 97] = 90
• Cc1ccc(OCc2c(F)cccc2F)cc1N1Cc2ccc(C(=O)N3CCCC(O)C3)cc2NC1=O (centres unmarked) [Example 205] = 77
• Cc1ccc(OCc2ccc(F)cc2F)cc1N1Cc2ccc(C(C)(C)O)cc2NC1=O [Example 201] = 104
• O=c1[nH]c2cc[nH]c2c(=O)n1-c1cccc(OCc2c(F)cccc2F)c1 [Example 325] = 65
• Cc1ccc(OCc2c(F)cccc2F)cc1N1Cc2ccc(C(=O)NCCO)cc2NC1=O [Example 197] = 101
• CC(C)(O)CNC(=O)c1ccc(OCc2c(F)cccc2F)cc1N1Cc2ccccc2NC1=O [Example 190] = 55
• O=C1NCCN1c1cc2c(c(C3CC3)n1)CN(c1cc3c(cc1Cl)CCC(c1ncccc1F)O3)C(=O)N2 (centres unmarked) [Example 131] = 101
• O=C(NCC(F)(F)F)c1cc2c(c(C3CC3)n1)CN(c1cc3c(cc1Cl)CCC(c1ncccc1F)O3)C(=O)N2 (centres unmarked) [Example 149] = 107
• Cc1ccc(OCc2ncccc2F)cc1N1Cc2c(cc[nH]c2=O)NC1=O [Example 310] = 95
